Every entry's value here was drawn from ChEMBL document CHEMBL1132418.

Record form. Attribute: Mean survival. Fill in for each entry.
System: Rattus norvegicus
Assay: Compound (6 mg/kg) is evaluated for prevention of graft rejection after heart allotransplantation in the Dark Agouti to Lewis rat combination.
Type: functional
One number for each entry, in days.

Known Mean survival results, listed for orientation:
| compound | Mean survival, days |
| --- | --- |
| N=C(N)NCCCCCCC(=O)NC(O)C(=O)NCCCCNCCCN (stereo not given) [GUSPERIMUS] | 38 |
| N=C(N)NCCCCCCNC(=O)COC(=O)NCCCCNCCCN [TRESPERIMUS] | 54 |
| NCCCNCCCCNC(=O)C(O)C(=O)NCCCCCCN=C(N)N (stereo not given) | 33 |

// for each compound in input: emit Mean survival
1. NCCCNCCCCNC(=O)C(=O)NCCCCCCN=C(N)N
2. NCCCNCCCCNC(=O)CC(=O)NCCCCCCN=C(N)N

[12, 9]
